# procedureSummary: Biodistribution of DHA after periorbital skin (NIODP) application to one eye
# Assay type: in vivo, Cynomolgus monkeys
# measurementConditions: cynomolgus monkey, upper eyelid of the undosed right eye (OD), topical; OD (undosed eye); 0.5 h; 6755.1 μg to OS via NIODP; read-out: DHA in upper eyelid
observedProperty: concentration at 0.5 h (ng/g)

• CC/C=C\C/C=C\C/C=C\C/C=C\C/C=C\C/C=C\CCC(=O)O = 41100

---

# procedureSummary: DHA distribution after single periorbital skin administration
# Assay type: in vivo, Bama minipigs
# measurementConditions: Bama, minipig, retina, left (dosed side), topical, 6092 μg/eye; 3 h; DHA 6092 μg to periorbital skin of left eye; read-out: Drug Concentration in Tissue: retina-left
observedProperty: concentration at 3 h

• CC/C=C\C/C=C\C/C=C\C/C=C\C/C=C\C/C=C\CCC(=O)O = 61700 ng/g

Cited source for all entries: patent US20240350447A1
